Target: Acyl-protein thioesterase 2 (Mus musculus) (UniProt Q9WTL7)
Sequence (Q9WTL7 whole entry, looked up): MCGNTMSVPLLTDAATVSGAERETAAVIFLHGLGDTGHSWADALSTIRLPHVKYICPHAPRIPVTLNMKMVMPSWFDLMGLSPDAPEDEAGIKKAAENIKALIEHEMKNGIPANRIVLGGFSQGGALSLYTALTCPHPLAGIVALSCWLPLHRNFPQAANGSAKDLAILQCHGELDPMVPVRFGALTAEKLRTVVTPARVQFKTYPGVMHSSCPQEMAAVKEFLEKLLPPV
Assay: serine hydrolase off-target inhibition in mouse brain, late-stage follow-up, selectivity assay for DAGLb inhibitor project, biochemical, gel-based competitive ABPP, mouse brain membrane, set 3 (AID 602321)
Details: gel-based competitive ABPP fluorescence, LYPLA2, inhibition, at 1 µM, stronger effect = higher value
Outcome label depends on inhibition relative to 10%: at/above gives class 1, below gives class 0.

**Query** Decide: inhibition of O=C(c1ccc(-c2ccc(-c3cn(C(=O)N4CCCCC4Cc4ccccc4)nn3)cc2)cc1)N1CCCCC1 (centres undefined) >= 10%?
**Result** class 0

**Query** Similarly, O=C(O)c1ccc(-c2ccc(-c3cn(C(=O)N4CCCCC4CCc4ccccc4)nn3)cc2)cc1 (centres undefined) ?
**Result** class 0

src = PubChem BioAssay AID602321
